- TEST SYSTEM: human mAChR M1 (Homo sapiens, UniProt P11229)
- Sequence (P11229 whole entry): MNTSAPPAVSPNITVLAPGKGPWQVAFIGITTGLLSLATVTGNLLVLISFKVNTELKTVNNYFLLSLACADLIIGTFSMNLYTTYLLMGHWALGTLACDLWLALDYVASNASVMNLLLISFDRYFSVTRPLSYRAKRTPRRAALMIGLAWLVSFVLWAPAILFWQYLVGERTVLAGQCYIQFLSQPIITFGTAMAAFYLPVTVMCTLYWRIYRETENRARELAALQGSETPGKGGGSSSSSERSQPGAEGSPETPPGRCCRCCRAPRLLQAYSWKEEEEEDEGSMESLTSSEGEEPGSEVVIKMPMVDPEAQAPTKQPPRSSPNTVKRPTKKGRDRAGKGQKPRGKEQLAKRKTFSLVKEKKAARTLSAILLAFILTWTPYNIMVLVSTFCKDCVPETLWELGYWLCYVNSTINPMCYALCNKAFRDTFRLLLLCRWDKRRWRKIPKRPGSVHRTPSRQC
- TEST DETAILS: mAChR M1 cell-based functional assay (calcium mobilization), agonist activity upon compound addition alone
- ASSAY CONTEXT: CHO-K1 cells expressing hM1; calcium mobilization upon compound addition, no acetylcholine
Listed here are molecules together with their documented EC50.

Illustrative cases are given below, each with its answer.
STRUCTURE SMILES	TEST SYSTEM	EC50
Cc1nc(-c2ccc(Cc3cc(C(=O)NC4CCOCC4)nc(-n4cccn4)c3)cc2)co1	human mAChR M1 (Homo sapiens, UniProt P11229)	> 10 µM
Cc1c(Cc2ccc(-c3cnn(C)c3)nc2)cc(C(=O)NC2CCOCC2)nc1-n1cccn1	human mAChR M1 (Homo sapiens, UniProt P11229)	> 10 µM

Let us examine a further case.
# EC50 of `Cn1ccc(-c2ccc(Cc3cc(C(=O)NC4CC5(COC5)C4)nc(-n4cccn4)c3)cc2)n1` = > 10 µM

----------
- TEST SYSTEM: human mAChR M1 (Homo sapiens)
- TEST DETAILS: mAChR M1 cell-based functional assay (calcium mobilization), PAM activity: increase in the EC20 acetylcholine response
- ASSAY CONTEXT: CHO-K1 cells expressing hM1; calcium flux (Fluo-4); potentiation of EC20 acetylcholine response
READOUT TYPE: Emax (%)
Numbers only; they are read as %.

Illustrative cases are given below, each with its answer.
MOLECULE	TEST SYSTEM	UNITS OF MEASURE	Emax
Cc1c(Cc2ccc(-c3ccn(C)n3)cc2)cc(C(=O)N[C@H]2CCCC[C@@H]2O)nc1-n1cccn1 [Compound 41]	human mAChR M1 (Homo sapiens)	%	79
Cc1c(Cc2ccc(-c3ccn(C)n3)cc2)cc(C(=O)NC[C@@H]2CCCO2)nc1-c1ccn(C)n1 [Compound 15]	human mAChR M1 (Homo sapiens)	%	82

Let us examine a further case.
Cc1c(Cc2ccc(-n3cccn3)cc2)cc(C(=O)N[C@H]2CC[C@@H]2O)nc1-c1ccn(C)n1 [Compound 60] tested on human mAChR M1 (Homo sapiens) gave Emax: 79

Data origin: patent US11851406B2
